target desc: human glucocorticoid receptor (GR) (Homo sapiens (Human), UniProt P04150)
Sequence (P04150 whole entry): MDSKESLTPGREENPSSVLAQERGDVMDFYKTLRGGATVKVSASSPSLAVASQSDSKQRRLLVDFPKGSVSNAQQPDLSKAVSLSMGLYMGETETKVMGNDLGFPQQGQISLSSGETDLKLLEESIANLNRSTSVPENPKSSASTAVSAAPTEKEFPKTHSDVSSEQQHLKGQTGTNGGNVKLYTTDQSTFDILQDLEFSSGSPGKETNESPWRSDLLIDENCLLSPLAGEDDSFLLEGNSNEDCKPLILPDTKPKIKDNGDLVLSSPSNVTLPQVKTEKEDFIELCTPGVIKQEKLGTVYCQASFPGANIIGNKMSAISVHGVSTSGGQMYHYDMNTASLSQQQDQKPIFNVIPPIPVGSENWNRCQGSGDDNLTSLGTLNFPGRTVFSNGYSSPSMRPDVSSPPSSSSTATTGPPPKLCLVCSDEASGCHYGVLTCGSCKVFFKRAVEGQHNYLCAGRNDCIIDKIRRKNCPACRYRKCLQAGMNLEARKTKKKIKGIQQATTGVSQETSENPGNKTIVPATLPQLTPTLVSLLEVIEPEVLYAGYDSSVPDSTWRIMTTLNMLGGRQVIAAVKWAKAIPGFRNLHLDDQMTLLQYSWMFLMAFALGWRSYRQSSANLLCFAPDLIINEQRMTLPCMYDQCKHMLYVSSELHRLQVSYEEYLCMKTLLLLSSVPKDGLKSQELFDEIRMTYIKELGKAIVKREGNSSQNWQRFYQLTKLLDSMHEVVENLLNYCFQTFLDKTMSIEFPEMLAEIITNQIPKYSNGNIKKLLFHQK
assay method text: GRE Agonist Assay (ChagoK1 18:7:2 s4/GRE MMTV-GRE-LacZ reporter cell line)
Format: cell-based
test parameters: transactivation in agonist mode, ChagoK1 GRE-LacZ reporter cells, 24 hours
metric: TA agonist pEC50
Lab note: jot the number down without any unit.

Past entries and their recorded results:
compound: CC(C)[C@H](NC(=O)C(C)(F)F)[C@H](Oc1ccc2c(cnn2-c2ccc(=O)n(C)c2)c1)c1ccc(C(F)(F)F)cc1 [Example 10]
TA agonist pEC50: 8.1

compound: CCn1cc(-n2ncc3cc(O[C@H](c4ccccc4)[C@@H](NC(=O)C(C)(F)F)C(C)C)ccc32)ccc1=O [Example 23]
TA agonist pEC50: 7.6

// next item, TA agonist pEC50 requested
Task item: Which value of TA agonist pEC50 has been reported for CC(C)[C@H](NC(=O)C(C)(F)F)[C@H](Oc1ccc2c(cnn2-c2ccc(=O)n(C)c2)c1)c1cccc(Cl)c1 [Example 5] in the records?
Reply: 8.6
